System: OVCAR-3
method: NCI tumour cell line growth inhibition, 48 h
Activity calls are given as the source filed them. Cut-off read from the data, not from the text of the source: active = GI50 up to about 1.1 µM and inactive = higher.
Possible outcomes: label 1 for active, label 0 for inactive

compound	assignedCategory
COc1cc2c[n+]3c4c(c2c(OC)c1OC)CCCC4CC3 (configuration not stated)	label 0
O=C1C2=C(C3=NCCc4c[nH]c1c43)C1(C=C(Br)C(O)C(Br)=C1)CCN2 (configuration not stated)	label 1
Cc1nc(C)c(N2CCN(CN)CC2)c(O)n1	label 0
CCOC(=O)C1=C(Nc2cccc3ccccc23)OC/C1=N\NC(=O)c1ccccc1O	label 0
CC(Br)C(=O)c1ccc2cc(Br)c3ccccc3c2c1 (configuration not stated)	label 0
CS(=O)(=O)NNS(=O)(=O)c1ccc(F)cc1	label 0
COc1cc(O)c2c(c1)OCC(Cc1ccc(O)cc1)C2=O (configuration not stated)	label 0
COP(=O)(OC)[C@@](O)(c1ccccc1)[C@@H](O)[C@@H](O)c1ccccc1	label 0
O=C1CCCSCCCC(=O)CCCSCCC1	label 0
Cc1nc2c(nc1C)-c1c(c3c(n1Cc1ccccc1)C(=O)CCC3)C(=O)C2=O	label 0
N#Cc1c(NC(=S)Nc2ccc(Cl)cc2)sc2c1CCCC2	label 0
N#Cc1c(O)cc(=O)n2c1[nH]c1ccccc12	label 0
O=C/C(=C(/Cl)c1ccc(O)cc1)c1ccccc1	label 0
COc1ccc2c(c1)CCC1=CC3(CCC12C)SCCS3 (configuration not stated)	label 0
CCCCCCCCP(=O)(O)OP(=O)(O)OCC1OC(n2ccc(N)nc2=O)C(O)C1O (configuration not stated)	label 0
O=C(c1ccccc1)c1c(C(=O)c2ccccc2)c(-c2ccccc2)c2c(-c3ccccc3)sc(-c3ccccc3)c2c1-c1ccccc1	label 0
Cc1ccsc1/C(S)=N\c1ccc(Cl)c(/C=N/OC(C)(C)C)c1	label 0
CCCC(C(=O)OC)C1N/C(=N/C#N)N(Cc2ccccc2)C1=O (configuration not stated)	label 0
N#CC12Cc3cc4c(cc3-c3cccc(c31)CCN2C(=O)c1ccccc1)OCO4 (configuration not stated)	label 0
O=C1O[B-](c2ccccc2)(c2ccccc2)[NH+]2CCCC12 (configuration not stated)	label 0
CCN(CC)CC(C(C)=O)C(c1ccccc1)c1c(O)c2ccccc2oc1=O (configuration not stated)	label 0
O=C(CC(=O)N1N=C(n2ccc3ccccc32)CC1c1ccccc1)Nc1cccc(Cl)c1 (configuration not stated)	label 0

* * *

Test system: HL-60
method: NCI tumour cell line growth inhibition, 48 h
Active and inactive are the calls of the source. No stated cut-off is given here; in the data, active = GI50 up to about 1.1 µM and inactive = higher.

itemSmiles	assayedTarget	GI50
N#CCCN(c1ccc(/C=N/c2nc(-c3ccccc3)cs2)cc1)S(=O)(=O)c1ccccc1	HL-60	30.8 µM (inactive)
O=C1CCCSCCCC(=O)CCCSCCC1	HL-60	> 100 µM (inactive)
O=c1[nH]c(=O)n(COCCOCc2ccccc2)cc1Nc1ccccc1	HL-60	41.9 µM (inactive)
Nc1ccc(/N=N/c2ccccc2)cc1	HL-60	13.4 µM (inactive)
COc1ccc2c(c1)[n+]([O-])c(-c1ccc(Cl)c(Cl)c1)c(N)[n+]2[O-]	HL-60	23.7 µM (inactive)
CC(C)=CCC[C@@H](C)C1=C(Nc2ccccc2Cl)C(=O)C(C)=C(O)C1=O	HL-60	0.612 µM (active)

* * *

System: HOP-92
method: NCI tumour cell line growth inhibition, 48 h
The source made the active and inactive calls. No stated cut-off is given here; in the data, active = GI50 up to about 1.1 µM and inactive = higher.
Possible outcomes: T = active, F = inactive

compound	assignedCategory
CC(=O)C(CN(CC(C)C)CC(C)C)C(c1ccccc1)c1c(O)c2ccccc2oc1=O (stereo not drawn)	F
CCN(CC)c1ccc(/C=C2\CCc3ccc([N+](=O)[O-])cc3C2=O)cc1	F
C/C=C1\CN2CCc3c([nH]c4ccccc34)C2CC1CCO (stereo not drawn)	F
C[C@]12CCC(=O)C=C1CC[C@@H]1C2CC[C@]2(C)Nc3c(ncn3-c3ccc(F)cc3)CC12 (stereo partly drawn)	F
COc1cc2c[n+](C)c3c4cc5c(cc4ccc3c2cc1OC)OCO5 [NITIDINE CHLORIDE]	F
Cc1c(N)nc(C(CC(N)=O)NCC(N)C(N)=O)nc1C(=O)NC(C(=O)NC(C)C(O)C(C)C(=O)NC(C(=O)NCCc1nc(-c2nc(C(=O)NCCCNC(C)c3ccccc3)cs2)cs1)C(C)O)C(OC1OC(CO)C(O)C(O)C1OC1OC(CO)C(O)C(OC(N)=O)C1O)c1c[nH]cn1 (stereo not drawn)	T
Oc1ccc2ccccc2c1/C=C/c1ccc2c(Br)cc(Br)c(O)c2n1	F
O=C1CCCSCCCC(=O)CCCSCCC1	F

* * *

Test system: BT-549
method: NCI tumour cell line growth inhibition, 48 h
Calls of active or inactive are those of the source. Cut-off read from the data, not from the text of the source: active = GI50 up to about 1.1 µM and inactive = higher.

compound	assayedTarget	GI50
C=CCN1CCC(O)(c2cc(C(=O)OCC)[nH]c2-c2cc(C)no2)C1 (stereo not given)	BT-549	> 100 µM (inactive)
CN(C)C(=S)N/N=C\C(=N/NC(=S)N(C)C)c1ccccc1	BT-549	> 22.2 µM (inactive)
Cc1cc(OCc2nc(N)nc(N)c2-c2ccc(Cl)c(Cl)c2)ccc1[N+](=O)[O-]	BT-549	1.03 µM (active)
N#Cc1c(NC(=S)Nc2ccc(Cl)cc2)sc2c1CCCC2	BT-549	> 100 µM (inactive)
CC(C)(C)OC(=O)N(CCCCNC(=O)OCc1ccccc1)CCCNC(=O)OCc1ccccc1	BT-549	53 µM (inactive)
O=C1CCCCC1C(O)(C(F)(F)F)C(F)(F)Cl (stereo not given)	BT-549	> 10 µM (inactive)
CN1C(=O)N(C)C(O)C(Cl)(Br)C1=O (stereo not given)	BT-549	> 100 µM (inactive)
CC[C@H](C)C1=C(OC(C)=O)[N@+]2([O-])Oc3ccc(-c4c(O)c(O)c(-c5ccc(OC(C)=O)cc5)c(OC(C)=O)c4OC(C)=O)cc3O[C@]2([C@@H](C)CC)C(=O)N1O	BT-549	16.9 µM (inactive)
CC(Br)C(=O)c1ccc2cc(Br)c3ccccc3c2c1 (stereo not given)	BT-549	15.1 µM (inactive)
O=C1CC(=O)N(C2CCCCC2)C(=O)N1c1ccccc1S(=O)(=O)Oc1ccccc1	BT-549	49.5 µM (inactive)

* * *

Test system: NCI-H522
method: NCI tumour cell line growth inhibition, 48 h
Calls of active or inactive are those of the source. No stated cut-off is given here; in the data, active = GI50 up to about 1.1 µM and inactive = higher.
Possible outcomes: 1 for active, -1 for inactive

compound	assignedCategory
COc1cc2c[n+](C)c3c4cc5c(cc4ccc3c2cc1OC)OCO5 [NITIDINE CHLORIDE]	1
CC1=C(C(=O)NNS(=O)(=O)c2ccc(C)cc2)CC(C(=O)NNS(=O)(=O)c2ccc(C)cc2)=C(C)N1	-1
Cc1cccc2c(N)c3cccc(C(=O)NCC[N+](C)(C)Cc4sc(N5CCOCC5)nc4[N+](=O)[O-])c3nc12	-1
CC1[C@@]2(CCC(C)(C)O2)O[C@@H]2C=C3C4CCC5Cc6nc7c(nc6C[C@@]5(C)C4C[C@H](O)[C@@]3(C)[C@]12O)CC1CCC2C3=C[C@H]4O[C@@]5(O[C@@](C)(CO)C[C@@H]5O)C(C)[C@@]4(O)[C@]3(C)[C@@H](O)CC2[C@]1(C)C7 (stereo not given in full)	1
CN(c1ccccc1Cl)S(=O)(=O)c1ccccc1[N+](=O)[O-]	-1
COc1cccc(/N=N/C(=N/NC(=O)c2ccc(C)cc2)c2ccc(N(CCC#N)CCC#N)cc2OC)c1	-1
COc1cc2c(cc1O)[C@@H]1Cc3c(cc(OC)c(OC)c3Oc3cc4c(cc3OC)CCN(C)[C@@H]4Cc3ccc(O)cc3)[C@H](C2)N1C	-1
CN1C(=O)c2c(c3c4ccccc4n(C)c3c3c2c2ccccc2n3C)C1=O	-1
COc1cc(C2c3cc4c(cc3OC(NN=C(C)C)C2C)OCO4)cc(OC)c1O (stereo not given)	-1
CC1(C)CCCCCC(C)(CCCO)C1=O (stereo not given)	-1
COC(=O)c1ccccc1C1CN=NC12Cc1cc(C)ccc1C2=O (stereo not given)	-1
CN(C)C1(c2cc3ccccc3s2)CCCCC1	-1
COc1ccccc1NC(=S)NN=C(C)c1cccc(C(C)=NNC(=S)Nc2ccccc2OC)n1	-1
O=C1CC(C2(O)C(=O)Nc3ccc([N+](=O)[O-])cc32)c2ccccc21 (stereo not given)	-1
COc1ccc(OC)c(NC(=O)C2=C(C)NC(C)=C(C(=O)Nc3cc(OC)ccc3OC)C2c2ccccc2)c1	-1
Cn1nc(-c2ccccc2)c2c(/C=C/c3ccc(F)cc3)onc2c1=O	-1
Cn1c(=O)c(C(c2ccc([N+](=O)[O-])cc2)c2c(O)c3ccccc3n(C)c2=O)cc2ccccc21 (stereo not given)	-1
COc1cc(O)c2c(c1)OCC(Cc1ccc(O)cc1)C2=O (stereo not given)	-1
COc1c(C(=O)NCCN(CCNC(=O)c2cccc(-c3cccc(C(=O)N(C)C)c3OC)c2OC)CCNC(=O)c2cccc(-c3cccc(C(=O)N(C)C)c3OC)c2OC)cccc1-c1cccc(C(=O)N(C)C)c1OC	-1
c1ccc(/N=C2\c3ccccc3C3=NCCCN32)cc1	-1
Cc1c(N)nc(C(CC(N)=O)NCC(N)C(N)=O)nc1C(=O)NC(C(=O)NC(C)C(O)C(C)C(=O)NC(C(=O)NCCc1nc(-c2nc(C(=O)NCCCNC(C)c3ccccc3)cs2)cs1)C(C)O)C(OC1OC(CO)C(O)C(O)C1OC1OC(CO)C(O)C(OC(N)=O)C1O)c1c[nH]cn1 (stereo not given)	-1
COc1ccccc1N1C(=O)C2c3[nH]c4ccccc4c3C3CCC(C(C)(C)C)CC3C2C1=O (stereo not given)	-1
COc1cc(CC(=O)c2ccc3c(c2)OCO3)cc(OC)c1OC	-1
CC(C)(C)c1cc(C(C)(C)C)c2sc(=O)oc2c1O	-1
Cc1nc(N)c(N2CCN(Cc3ccccc3)CC2)c(O)n1	-1
Cc1c(C(=O)O)n2c(C)nnc2c2ccccc12	-1
COC(=O)c1c(C#C[Si](C)(C)C)c(C#C[Si](C)(C)C)c(C#C[Si](C)(C)C)c(C#C[Si](C)(C)C)c1C(=O)OC	-1
Cc1c2c(nc3ccccc13)C(=O)c1cccnc1C2=O	-1
C=C1C(=O)O[C@@H]2C=C(C)C3=CC(=O)[C@](C)(C[C@H](OC(=O)/C(C)=C\C)[C@@H]12)O3	1
C[C@]12CCC(=O)C=C1CC[C@@H]1C2CC[C@]2(C)Nc3c(ncn3-c3ccc(F)cc3)CC12 (stereo not given in full)	-1
COc1cc(/C=C/C(=O)O)ccc1C(=O)O/C=C/c1ccccc1	-1
O=C1CSC(C(/N=N/c2ccccc2)=C2Nc3ccccc3N2)=N1	-1
COC(=N)/C(=C1\OC(=N)C(c2ccc(Cl)cc2)=C1O)c1ccc(Cl)cc1	-1
CCCC(C(=O)OC)C1N/C(=N/C#N)N(Cc2ccccc2)C1=O (stereo not given)	-1
Oc1cc(O)c(Oc2cccc(O)c2O)c(O)c1	-1

Reference for the values: ChEMBL document CHEMBL1201862
